Test system: NLuc-UGA PTC
MEASUREMENT PROTOCOL: NanoLuc nonsense reporter screen (all-in-one HTC plasmid), TGA/UGA PTC, HEK293 cells
Type: cell-based, human
MEASUREMENT PARAMETERS: Table 1, Arg TGA
Text: Several different nonsense mutations cause CF, thus underlying roughly 10% of all CF disease. FIG. 7. These cases are concentrated into […] specific genetic lesions: E60X, R75X, G542X, R553X, Q890X, Y1092X, R1158X, R1162X and W1282X. […] Screening studies were first performed to identify the best ACE-tRNA Candidates from tryptophan and glycine. […] Plates were read on a SpectraMax i3 (Molecular Devices). […]
MEASURE NAME: Ranking

ArgTGAchr1.trna10/nointron: ACE-tRNA Arg, TGA suppressor, SEQ ID NO: 6 (nucleic acid, expressed or natural sequence) CGTCGGCTCCGTGGCGCAATGGATAGCGCATTGGACTTCAAATTCAAAGGTTCCGGGTTCGAGTCCCGGCGGAGTCG ... #3
ArgTGAchr17.trna3/nointron: ACE-tRNA Arg, TGA suppressor, SEQ ID NO: 8 (nucleic acid, expressed or natural sequence) CGTCGGCTCTGTGGCGCAATGGATAGCGCATTGGACTTCAAATTCAAAGGTTGTGGGTTCGAATCCCACCAGAGTCG ... #4
ArgTGAchr16.trna3: ACE-tRNA Arg, TGA suppressor, SEQ ID NO: 10 (nucleic acid, expressed or natural sequence) CGTCGCCCCGGTGGCCTAATGGATAAGGCATTGGCCTTCAAAGCCAGGGATTGTGGGTTCGAGTCCCACCCGGGGTA ... #5
ArgTGAchr17.trna3/withinron: ACE-tRNA Arg, TGA suppressor, SEQ ID NO: 12 (nucleic acid, expressed or natural sequence) CGTCGGCTCTGTGGCGCAATGGATAGCGCATTGGACTTCAAGTGACGAATAGAGCAATTCAAAGGTTGTGGGTTCGAATCCCACCAGAGTCG ... #7
